- targetUnderTest: human cannabinoid receptor type 1 (CB1) (human, UniProt P21554 1-472)
- Sequence (P21554 whole entry): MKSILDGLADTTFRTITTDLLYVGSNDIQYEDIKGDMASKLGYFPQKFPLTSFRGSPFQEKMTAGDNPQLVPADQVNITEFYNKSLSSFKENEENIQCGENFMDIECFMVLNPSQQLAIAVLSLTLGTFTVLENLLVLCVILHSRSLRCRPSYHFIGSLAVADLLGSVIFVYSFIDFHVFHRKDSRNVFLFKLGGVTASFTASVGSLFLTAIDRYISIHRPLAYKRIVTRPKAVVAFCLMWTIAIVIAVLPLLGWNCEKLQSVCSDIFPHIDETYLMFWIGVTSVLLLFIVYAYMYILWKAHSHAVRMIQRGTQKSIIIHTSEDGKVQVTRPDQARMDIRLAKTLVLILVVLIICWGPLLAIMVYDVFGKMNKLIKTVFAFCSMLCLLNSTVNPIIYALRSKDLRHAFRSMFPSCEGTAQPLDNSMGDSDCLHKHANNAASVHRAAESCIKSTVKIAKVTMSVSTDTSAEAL
- procedureText: cell-based or functional assay
measuredProperty: P-ERK IC50 (nM) Data Set 2
Give the quantity in nM, number only.

Prompt: Please look at this binder and report its P-ERK IC50 (nM) Data Set 2: M7 mouse anti-huCB-1 antibody (antibody, V domains shown) VH: EVQLQQPGAELVRPGASVKLSCKASSYTFTRYWMNWVKQRPEEGLEWIGMIDPYDSETHYNQKFKDKAILTVDKSSSTAYMQLSTLTSEDSAVYFCARSQPRYYAMDYWGQGTSVTVSS VL: DIQMSQSPSSLSASLGERVSLTCRASQEISGFLSWLQLRPDGTIKRLIYAASSLDSGVPKRFRGSWSGSDYSLTISSLESEDFADYYCLQYSSYPYTFGGGTKLEIK
Response: 170

Prompt: Note down P-ERK IC50 (nM) Data Set 2 recorded for M2 mouse anti-huCB-1 antibody (antibody, V domains shown) VH: EVQLQQSGPELVKPGTSVKISCKASGYTFTDYNMHWVKLGKSLEWIGYFYPDDGGSGYNQKFKGKATLTIDKSSSTAYMELHSLTSEDSAVYYCARGYGNSWGTYWGQGTLVTVSA VL: EIVLTQSPTTMAASPGEKITITCSASSRISSNYLYWYQQKPGFSPKLLIYRTSNLASGVPARFSGSGSGTSYSLTIGTMEAEDVATYYCQQGSSIPYTFGGGTKLEIK
Response: 211

Prompt: Please give the documented P-ERK IC50 (nM) Data Set 2 of M1 mouse anti-huCB-1 antibody (antibody, V domains shown) VH: QVQLQQSGAELVRPGVSVKISCKGSGYTFTDHALHWVKQSQARSLEWIGIISTYYGDATYNQKFKGKATMTVDKSSSTAYMELARLTSEDSAFYYCARGGLYYGTNYRAMDYWGQGTSVTVSS VL: DIVMTQSQKFMSTSVGDRVSVTCKASQNVGSNVAWYQQKPGQSPKALIYSASYRYSGVPDRFTGSGSGTDFTLTISNVQSEDLAEYFCQQYNNYPFTFGSGTKLEIK
Response: 165
